Target Or Test System: Gal(b1-3)GlcNAc(b1-3)Gal(b1-4)Glc
Protocol Summary: glycan array binding signal (z-score within array); higher = stronger binding
Stated Conditions: glycan notation: IUPAC condensed, linker removed
Only a selection was taken, and the strongest signals are over-represented in it overall.
Value Type: glycan array binding signal (z-score)
Give bare numbers.

Some solved cases for reference:
Binder	glycan array binding signal (z-score)
PNA (Arachis hypogaea), P02872 (protein) MKPFCVFLTFFLLLAASSKKVDSAETVSFNFNSFSEGNPAINFQGDVTVLSNGNIQLTNLNKVNSVGRVLYAMPVRIWSSATGNVASFLTSFSFEMKDIKDYDPADGIIFFIAPEDTQIPAGSIGGGTLGVSDTKGAGHFVGVEFDTYSNSEYNDPPTDHVGIDVNSVDSVKTVPWNSVSGAVVKVTVIYDSSTKTLSVAVTNDNGDITTIAQVVDLKAKLPERVKFGFSASGSLGGRQIHLIRSWSFTSTLITTTRRSIDNNEKKIMNMASA	0.203
Gal 12 (Homo sapiens), Q96DT0 (protein) MSQPSGGRAPGTRIYSWSCPTVMSPGEKLDPIPDSFILQPPVFHPVVPYVTTIFGGLHAGKMVMLQGVVPLDAHRFQVDFQCGCSLCPRPDIAFHFNPRFHTTKPHVICNTLHGGRWQREARWPHLALRRGSSFLILFLFGNEEVKVSVNGQHFLHFRYRLPLSHVDTLGIFGDILVEAVGFLNINPFVEGSREYPAGHPFLLMSPRLEVPCSHALPQGLSPGQVIIVRGLVLQEPKHFTVSLRDQAAHAPVTLRASFADRTLAWISRWGQKKLISAPFLFYPQRFFEVLLLFQEGGLKLALNGQGLGATSMNQQALEQLRELRISGSVQLYCVHS	-0.471
Jacalin (Artocarpus integrifolia) (protein) MAYSSLLSLSVLALLFSISSADTRKWFLANGINQNPIGIIEAAVGVSEDLLNLNGMEAKNDEQSGISQTVIVGPWGAKVSTSSNGKAFDDGAFTGIREINLSYNKETAIGDFQVVYDLNGSPYVGQNHKSFITGFTPVKISLDFPSEYIMEVSGYTGNVSGYVVVRSLTFKTNKKTYGPYGVTSGTPFNLPIENGLIVGFKGSIGYWLDYFSMYLSL	-0.279

For each of the items listed, what is its glycan array binding signal (z-score)?
1. Gal 8 (Homo sapiens), O00214_1 (protein) MMLSLNNLQNIIYNPVIPFVGTIPDQLDPGTLIVIRGHVPSDADRFQVDLQNGSSMKPRADVAFHFNPRFKRAGCIVCNTLINEKWGREEITYDTPFKREKSFEIVIMVLKDKFQVAVNGKHTLLYGHRIGPEKIDTLGIYGKVNIHSIGFSFSSDLQSTQASSLELTEISRENVPKSGTPQLRLPFAARLNTPMGPGRTVVVKGEVNANAKSFNVDLLAGKSKDIALHLNPRLNIKAFVRNSFLQESWGEEERNITSFPFSPGMYFEMIIYCDVREFKVAVNGVHSLEYKHRFKELSSIDTLEINGDIHLLEVRSW
2. TbCVNHOa (Tuber borchii), Q5MK11 (protein) MSYADSSRNAVLTNGGRTLRAECRNADGNWVTSELDLDTCIGNPNGFLGWGMQNFSHSSEDIKLEEGGRKLTCRPKTVDGGFRERQGIDLNRIQNVNGRLVFQ

0.084
2.76
